- assay system: furin, P09958;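 note: purified furin at 1:10 enzyme:substrate in 50 mM HEPES pH 7.5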
- Sequence (P09958 whole entry): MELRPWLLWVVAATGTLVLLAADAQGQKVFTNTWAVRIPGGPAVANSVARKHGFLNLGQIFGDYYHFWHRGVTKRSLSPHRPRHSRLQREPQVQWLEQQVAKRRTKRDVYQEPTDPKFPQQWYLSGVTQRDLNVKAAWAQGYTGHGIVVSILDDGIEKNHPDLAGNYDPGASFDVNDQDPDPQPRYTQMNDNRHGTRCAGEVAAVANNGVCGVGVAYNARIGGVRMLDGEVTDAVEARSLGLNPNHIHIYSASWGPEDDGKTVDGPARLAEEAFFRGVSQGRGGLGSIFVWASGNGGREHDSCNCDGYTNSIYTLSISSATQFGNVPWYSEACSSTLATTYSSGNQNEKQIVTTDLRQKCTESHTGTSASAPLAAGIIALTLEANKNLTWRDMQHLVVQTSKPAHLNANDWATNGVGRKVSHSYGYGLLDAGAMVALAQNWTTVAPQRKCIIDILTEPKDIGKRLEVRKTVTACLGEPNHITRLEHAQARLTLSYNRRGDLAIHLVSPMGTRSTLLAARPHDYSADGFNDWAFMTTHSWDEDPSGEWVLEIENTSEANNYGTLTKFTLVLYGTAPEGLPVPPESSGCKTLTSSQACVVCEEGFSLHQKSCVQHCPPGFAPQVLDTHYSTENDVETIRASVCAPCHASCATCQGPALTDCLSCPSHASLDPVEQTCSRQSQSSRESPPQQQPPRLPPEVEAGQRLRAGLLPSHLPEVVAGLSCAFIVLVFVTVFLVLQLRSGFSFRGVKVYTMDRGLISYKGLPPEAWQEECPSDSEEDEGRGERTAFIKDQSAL
- procedure text: furin cleavage Z-score vs untreated control; higher = more cleavage, active = 3.5 or more, inactive = 1 or less, 8 variable residues between constant flanks
- test conditions: 15 min
This is one part of the list. How many sequences the whole screen found active is unknown.
Mark Criterion met for reported furin cleavage Z-score of -0.2 or greater; mark Criterion not met for anything smaller.

polymer sequence | class name
CARLRRILEVAGNASASA [FS-2433] | Criterion met
CAVVVTSTWVAGNASASA [HC2150] | Criterion not met

Here's the next entry for you.
Would you say CARLHRFDSQAGNASASA [FS-2569] shows furin cleavage Z-score at minimum -0.2?
Criterion met
